System: HEK293T
Test: qHTS assay to identify novel small-molecules to repurpose for Merkel cell carcinoma treatment (AID 1296009); further: nearly all actives have a fitted effect of over 60% in size
Conditions: MCC and control cell lines, CellTiter-Glo viability, 72 h; at 44.8 µM (top of the series) unless noted
Inconclusive results are not listed. The source made the active and inactive calls. The call rests on the fitted dose curve; in most records, active means well fitted inhibition curve with a large enough effect; inconclusive means small, poorly fitted or top-dose-only effect; inactive means flat fitted curve, though single readings scatter.

Molecule	outcome
C[C@@]12C[C@@H](c3ccoc3)OC(=O)C1CC[C@]1(C)[C@H]2[C@H]2C=C[C@]1(O)C(=O)O2 (some centres undefined)	inactive
COc1cc(C)[nH]c(=O)c1CNC(=O)c1c(C)n([C@H](C)C2CCOCC2)c2ccccc12	inactive
C=C[C@H]1[C@H](O[C@@H]2O[C@H](CO)[C@@H](O)[C@H](O)[C@H]2O)OC=C2C(=O)OCC[C@H]21	inactive

====

Assay: Validation screen for small molecules that induce DNA re-replication in SW480 colon adenocarcinoma cells (AID 504364); further: 0% is about no effect
Conditions: DNA re-replication phenotype (high-content imaging); series mostly up to 46.1 µM
Inconclusive results are not listed. Activity calls are given as the source filed them. The call rests on the fitted dose curve; in most records, active means well fitted activation curve with a large enough effect; inconclusive means small, poorly fitted or top-dose-only effect; inactive means flat fitted curve, though single readings scatter.
Bench note: report the call from T for active, F for inactive

So what was the verdict on `C[N+](C)(C)CC#CCN1CCCC1=O` in this test?
F

So what was the verdict on `O=C1C=CC(=O)C=C1` in this test?
F

====

Assay: qHTS for differential inhibitors of proliferation of Plasmodium falciparum line W2 (AID 1883);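 further: parasites grown with compound for 72 h before lysis and staining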
Settings: Plasmodium falciparum W2 proliferation inhibition; series mostly up to 28.7 µM
Records with an inconclusive call do not appear. Activity calls are given as the source filed them. Calls come from the whole dose curve; as a rule, active = well fitted curve in the direction sought with a large enough effect; inconclusive = small, poorly fitted or top-dose-only effect, or another doubt; inactive = no such curve, though single readings can be large or run the other way.
Bench note: report the call from active, inactive

Here are 5 molecules together with their reported answers.
Molecule	Class Name
C[N+]1(C)C2CCC1CC(OC(=O)c1c[nH]c3ccccc13)C2 (configuration not stated)	active
CC1(C(=O)O)C2CCC(O2)C1(C)C(=O)O (configuration not stated)	active
C[C@H](Cc1ccc2c(c1)OC(C(=O)O)(C(=O)O)O2)NC[C@H](O)c1cccc(Cl)c1	inactive
CC1OC1P(=O)(O)O (configuration not stated)	inactive
CCCN(CCC)CCc1ccc(O)c(O)c1	active

So what was the verdict on `C[N+](C)(C)CC#CCOC(=O)Nc1cccc(Cl)c1` in this test?
active

So what was the verdict on CN1C2CCC1CC(OC(c1ccccc1)c1ccccc1N)C2 (configuration not stated) in this test?
active

====

Test: Confirmatory screen NINDS Rhodamine qHTS for Zika virus inhibitors (AID 1347161); further: nearly all actives have a fitted effect of over 60% in size
Settings: purified enzyme assay, Rhodamine110 substrate fluorescence, 15 min; series mostly up to 38.1 µM
Description: Avindra Nath, Ph.D., National Institute of Neurological Disorders and Stroke (NINDS), Bethesda, MD Radhakrishnan Padmanabhan, Ph.D., Georgetown University (GU), Washington D.C. Zika Virus causes congenital defects, including microcephaly and is associated with Guillain-Barre syndrome, eningoencephalitis and myelitis in infected adult. […]
Results filed as inconclusive are left out. Calls of active or inactive are those of the source. The call rests on the fitted dose curve; in most records, active means well fitted inhibition curve with a large enough effect; inconclusive means small, poorly fitted or top-dose-only effect; inactive means no such curve, though single readings can be large or run the other way.
Bench note: report the call from 1 = active, 0 = inactive

Here are 2 molecules together with their reported answers.
Molecule	Class Name
CC(=O)c1c(O)c(C)c(O)c(Cc2c(O)c3c(c(C(=O)/C=C/c4ccccc4)c2O)OC(C)(C)C=C3)c1O	1
COc1c(C(C)C)cc2c(c1O)[C@@]1(C(=O)O)CCCC(C)(C)C1CC2 (stereo partly specified)	1

So what was the verdict on CCN1CC2(COC)C3[C@@H](OC)C4C1C3(C1C[C@]3(O)[C@H](OC(=O)c5ccccc5)C1[C@]4(OC(C)=O)[C@@H](O)[C@@H]3OC)[C@H](OC)C[C@H]2O (stereo partly specified) in this test?
0

So what was the verdict on `CCCCCOc1cc2c(cc1-c1cc(/C=C/C(=O)O)ccc1O)C(C)(C)CCC2(C)C` in this test?
1

So what was the verdict on `O=c1ccc2[nH]cc(C3=CCNCC3)c2[nH]1` in this test?
1

So what was the verdict on O=C1OC2(c3cc(Br)c(O)cc3Oc3c2cc(Br)c(O)[c]3[Hg])c2ccccc21 (stereo unspecified) in this test?
0

====

Molecular target: Nucleoprotein (Lymphocytic choriomeningitis virus (strain Armstrong)) (UniProt P09992)
Sequence (P09992 whole entry, looked up): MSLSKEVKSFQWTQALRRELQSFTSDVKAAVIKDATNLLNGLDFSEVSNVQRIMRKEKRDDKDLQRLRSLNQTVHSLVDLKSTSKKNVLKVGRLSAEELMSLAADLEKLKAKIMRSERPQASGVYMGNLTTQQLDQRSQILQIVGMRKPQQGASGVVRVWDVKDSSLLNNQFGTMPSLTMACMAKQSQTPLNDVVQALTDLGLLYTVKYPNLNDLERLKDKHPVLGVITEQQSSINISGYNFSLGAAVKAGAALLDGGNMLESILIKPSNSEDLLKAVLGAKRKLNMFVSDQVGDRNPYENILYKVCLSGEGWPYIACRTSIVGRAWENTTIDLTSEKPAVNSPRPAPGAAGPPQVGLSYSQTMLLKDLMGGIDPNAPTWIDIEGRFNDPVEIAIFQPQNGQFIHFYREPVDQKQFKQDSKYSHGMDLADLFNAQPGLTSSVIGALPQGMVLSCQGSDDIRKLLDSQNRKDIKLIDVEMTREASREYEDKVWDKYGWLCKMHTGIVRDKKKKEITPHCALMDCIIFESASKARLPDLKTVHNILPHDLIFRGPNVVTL
Assay: qHTS for Inhibitors of the Functional Ribonucleoprotein Complex (vRNP) of Lymphocytic Choriomeningitis Arenaviruses (LCMV): LCMV Primary Screen - GLuc reporter signal (AID 1347086); further: nearly all actives have a fitted effect of over 70% in size
Conditions: LCMV minigenome vRNP cell assay, Gaussia luciferase reporter; series mostly up to 57.5 µM
Inconclusive results are not listed. Active and inactive are the calls of the source. The call rests on the fitted dose curve.
Endpoint Label: outcome

Compound	Measured Target	outcome
CC(Cc1ccc(OCC(=O)O)cc1)NCC(O)c1cccc(Cl)c1 (configuration not stated)	Nucleoprotein (Lymphocytic choriomeningitis virus (strain Armstrong)) (UniProt P09992)	inactive
N#C/C(=C/c1ccc(O)c(O)c1)C(N)=S	Nucleoprotein (Lymphocytic choriomeningitis virus (strain Armstrong)) (UniProt P09992)	inactive
COc1ccc2c(c1)C13CCCCC1C(C2)N(C)CC3 (configuration not stated)	Nucleoprotein (Lymphocytic choriomeningitis virus (strain Armstrong)) (UniProt P09992)	inactive
Clc1cc(I)cc(Cl)c1NC1=NCCN1	Nucleoprotein (Lymphocytic choriomeningitis virus (strain Armstrong)) (UniProt P09992)	inactive
CN1CC[C@@]2(C)c3cc(OC(=O)Nc4ccccc4)ccc3N(C)[C@@H]12	Nucleoprotein (Lymphocytic choriomeningitis virus (strain Armstrong)) (UniProt P09992)	inactive
COc1ccc2[nH]c3c(c2c1)CCNC3	Nucleoprotein (Lymphocytic choriomeningitis virus (strain Armstrong)) (UniProt P09992)	inactive

The record that follows has no outcome shown yet.
I would be grateful if you could share the reported outcome for `CCCN(CCC)C1Cc2cc(OC)c(OC)cc2C1` .
inactive

====

Assay: qHTS assay to identify small molecule inhibitors of chordoma cells - UCH-2 (AID 1259356)
Conditions: UCH-2 chordoma viability, CellTiter-Glo ATP luminescence, 48 h; series mostly up to 46.1 µM
Inconclusive results are not listed. The source made the active and inactive calls. Calls follow the shape of the dose curve; as a rule, active = well fitted cell-killing curve with a large enough effect; inconclusive = small, poorly fitted or top-dose-only effect; inactive = flat fitted curve, though single readings scatter.
Bench note: report the call from active, inactive

So what was the verdict on `CCOC(=O)/C=C(C)/C=C/C[C@@H](C)CCCC(C)C` in this test?
inactive

====

Assay: qHTS for differential inhibitors of proliferation of Plasmodium falciparum line 7G8 (AID 1815);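 further: parasite growth measured after three days of incubation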
Conditions: Plasmodium falciparum 7G8 proliferation inhibition; series mostly up to 28.7 µM
Results filed as inconclusive are left out. The source made the active and inactive calls. Calls come from the whole dose curve; as a rule, active = well fitted curve in the direction sought with a large enough effect; inconclusive = small, poorly fitted or top-dose-only effect, or another doubt; inactive = no such curve, though single readings can be large or run the other way.
Bench note: report the call from active, inactive

Here are 3 compounds together with their reported answers.
Compound	Class Name
N#CC(C#N)=Cc1cc(O)c(O)c(O)c1	active
O=[N+]([O-])c1ccc2nc(N3CCNCC3)ccc2c1	active
Oc1ccc2c3c1O[C@H]1c4[nH]c5ccccc5c4C[C@@]4(O)C(C2)N(CC2CC2)CCC314 (stereo not given in full)	active

Could you now consider this next compound?
So what was the verdict on C=CCN1CCC23c4c5ccc(O)c4O[C@H]2C(=O)CC[C@@]3(O)C1C5 (stereo not given in full) in this test?
inactive

====

Target: Phospholipid hydroperoxide glutathione peroxidase GPX4 (Homo sapiens) (UniProt P36969)
Sequence (P36969 whole entry, looked up): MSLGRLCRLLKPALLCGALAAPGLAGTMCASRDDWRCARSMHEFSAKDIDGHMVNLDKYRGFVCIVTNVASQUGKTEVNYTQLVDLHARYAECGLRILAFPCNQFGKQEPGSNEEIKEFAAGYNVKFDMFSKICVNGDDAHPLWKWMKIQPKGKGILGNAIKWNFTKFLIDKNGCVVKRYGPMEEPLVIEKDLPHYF
Test: Primary qHTS Assay for Inhibitors of Recombinant Selenoprotein Glutathione Peroxidase 4 (GPX4) (AID 1845192); further: nearly all actives have a fitted effect of over 65% in size
Details: recombinant GPX4, GR-coupled NADPH fluorescence, 15 min; series mostly up to 50 µM
Inconclusive results are not listed. The source made the active and inactive calls. The call rests on the fitted dose curve; in most records, active means well fitted inhibition curve with a large enough effect; inconclusive means small, poorly fitted or top-dose-only effect; inactive means flat fitted curve, though single readings scatter.
Endpoint Label: activity change, negative = inhibition

Some compounds with known activity change, negative = inhibition results, for comparison:
Compound	Result
C[C@H]1C2Cc3ccc(O)cc3[C@@]1(C)CCN2CC1CC1	inactive
CN(C(=O)Cc1ccc(Cl)c(Cl)c1)C(CN1CCCC1)c1cccc(OCC(=O)O)c1 (stereo not given)	inactive
CN1CCc2cc(O)cc3c2[C@H]1Cc1ccc(O)c(O)c1-3	inactive
COc1ccc2[nH]cc(CCN)c2c1	inactive

I would be grateful if you could share the reported activity change, negative = inhibition for CC1=CC2/C=C(\C)CCC(O)C3OC(C)(C)OC3CC(=O)OC23C(=O)NC(CC(C)C)C3C1C (stereo not given) .
inactive

I would be grateful if you could share the reported activity change, negative = inhibition for `c1ccc2c(c1)[I+]c1ccccc1-2` .
inactive

====

System: Zika virus NS2B-NS3 protease (unlinked)
Experiment: Optimization of GU AMC qHTS for Zika virus inhibitors: Unlinked NS2B-NS3 protease assay (AID 1347151); further: nearly all actives have a fitted effect of over 80% in size
Conditions: recombinant ZIKV NS2B-NS3 protease, fluorogenic AMC substrate; series mostly up to 52.5 µM
Results filed as inconclusive are left out. Activity calls are given as the source filed them. The call rests on the fitted dose curve; in most records, active means well fitted inhibition curve with a large enough effect; inconclusive means small, poorly fitted or top-dose-only effect; inactive means no such curve, though single readings can be large or run the other way.
Bench note: report the call from active, inactive

Here are 10 compounds together with their reported answers.
Compound	Class Name
Ic1ccccc1CNC1C2CCN(CC2)C1C(c1ccccc1)c1ccccc1 (configuration not stated)	inactive
Cc1c2ccncc2c(C)c2c1[nH]c1ccccc12	active
CC12NC(Cc3ccccc31)c1ccccc12 (configuration not stated)	inactive
CN1C2CCC1CC(OC(c1ccccc1)c1ccccc1N)C2 (configuration not stated)	inactive
CP(=O)(O)C1=CCNCC1	inactive
O=[N+]([O-])/C=C/c1ccc2c(c1)OCO2	inactive
c1ccc2cc(CC3=NCCN3)ccc2c1	inactive
Cc1o[nH]c(=O)c1CC(N)C(=O)O (configuration not stated)	inactive
CC(N)Cc1c[nH]c2ccc(O)cc12 (configuration not stated)	inactive
CCCN1CCc2cccc3c2[C@H]1Cc1ccc(O)c(O)c1-3	active

So what was the verdict on `CC(=O)NBr` in this test?
inactive

So what was the verdict on `NNC(N)=O` in this test?
inactive

These measurements were taken from PubChem BioAssay (NCATS).
